B1: Twister Ribozyme (parent)
chain: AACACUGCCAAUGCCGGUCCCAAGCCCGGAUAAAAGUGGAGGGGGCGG

Variants of: B1
experiment: self-cleavage, relative activity (ratio to wild type); higher = more cleavage; co-transcriptional
A collection of variants and their measured self-cleavage

[
  {
    "variant_name": "G17C A30C",
    "self-cleavage": 0.101
  },
  {
    "variant_name": "C21U U31C",
    "self-cleavage": 0.103
  },
  {
    "variant_name": "C15G",
    "self-cleavage": 0.101
  },
  {
    "variant_name": "G24U G29U",
    "self-cleavage": 0.103
  }
]
